Target: GmolGOBP2 T9A (Grapholita molesta, UniProt H9XTU6, T29A)
Sequence (H9XTU6 entry or part of it T29A): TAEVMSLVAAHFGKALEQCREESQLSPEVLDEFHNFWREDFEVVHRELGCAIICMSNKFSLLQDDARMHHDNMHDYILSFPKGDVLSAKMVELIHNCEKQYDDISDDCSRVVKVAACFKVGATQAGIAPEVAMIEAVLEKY
Assay: Fluorescence competitive binding assay, GmolGOBP2 mutant T9A
Details: mutant T9A; protein and 1-NPN 2 μM, ligand 0 to 14 μM; read-out: Ki T9A

# compound, Ki, µM
records = [
    ("CCCCCCCCCCCCCCO", 5.75),
]

====

Quick reference: pIC50 of the listed items.
Target: GmolGOBP1 (Grapholita molesta, UniProt H9XTU5)
Sequence (H9XTU5 entry or part of it): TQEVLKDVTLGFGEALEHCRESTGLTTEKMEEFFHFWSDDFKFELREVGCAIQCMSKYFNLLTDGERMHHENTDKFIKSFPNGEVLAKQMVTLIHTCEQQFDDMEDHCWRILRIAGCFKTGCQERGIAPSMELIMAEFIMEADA
Experiment: Fluorescence competitive binding assay with probe 1-NPN, rGmolGOBP1
Settings: protein and 1-NPN 2 μM, pH 7.4; displacing half of initial fluorescence; read-out: GmolGOBP1 IC50
pIC50: −log10 of the molar value.

# compound, pIC50
data = [
    ("CCCCCCCCCCCCCCC", 4.91),
    ("CC/C=C\\CCOC(C)=O [Cis-3-Hexenyl acetate]", 4.61),
    ("CC(=O)OCCC(C)C [Isoamyl acetate]", 4.54),
    ("C=C/C(C)=C/CCC(=C)C", 4.87),
    ("CCCCCCC(=O)OCC [Ethyl heptanoate]", 4.43),
    ("CCCC(=O)OCC [Ethyl butyrate]", 4.44),
    ("CCCCCCC=O", 4.43),
    ("CC/C=C\\CC1C(=O)CCC1CC(=O)OC (stereo not shown) [Methyl jasmonate]", 4.41),
    ("CCCCOC(=O)CCC [Butyl butyrate]", 4.44),
    ("CCCCCC(=O)OCCCC [Butyl hexanoate]", 4.72),
    ("CCCCCCCCC=O", 4.23),
    ("CCCCCCCC=O", 4.63),
    ("CCCCCCCCCC", 5.25),
    ("CCCCCCOC(C)=O [Hexyl acetate]", 4.52),
    ("CCCCCCCCCC=O", 4.76),
    ("CCC/C=C/CCCCCCCOC(C)=O [E8-12:AC, (E)-8-dodecenyl acetate]", 4.98),
    ("CCCCCCO", 4.67),
    ("CCCCCCCCCCCCCC", 5.04),
    ("CCCCCC(=O)OCC [Ethyl hexanoate]", 4.42),
    ("CC(C)CCO", 4.94),
    ("CCC/C=C\\CCCCCCCO [Z8-12:OH, (Z)-8-dodecenyl alcohol]", 5.41),
    ("CCCCC(CC)CO (stereo not shown)", 4.57),
]
